test summary: physchem
stated conditions: concentrated fermentation supernatant, plasma or biological fluid, Residual solubility L-Methionine, no solvent (Reference), room temperature
readout name: solubility (mg/mL)
The reply should be a number in mg/mL, with the unit left off.

Q: Need solubility of CSCC[C@H](N)C(=O)O , thanks.
Result: 65

###

test summary: physchem
stated conditions: concentrated fermentation supernatant with added solvent, 4 °C, aqueous with cosolvent or surfactant or cyclodextrin, Residual solubility L-Methionine, Ethanol, ratio 70% by weight
readout name: solubility

Q: Please look up its solubility: CSCC[C@H](N)C(=O)O
Result: 4000 to 5000 µg/mL

###

test summary: physchem
stated conditions: 37 °C
readout name: solubility

Q: GET /values?readout=solubility&item= CSCC[C@H](N)C(=O)O [L-methionine]
Result: ~70 mg/mL
